biological target: pS1444; test: fluorescence polarisation; direct binding; dilution series of 14-3-3 isoform (at least 5 μM down to picomolar) mixed with 1 nM fluorescein-labelled peptide; 20 mM MOPS pH 7, 150 mM NaCl, 0.005% CHAPS; 384-well plates
Square brackets hold non-standard residues; d marks the D form. Ends that are not written are not given here. fluorescein = N-terminal fluorescein label; pS = N[C@@H](COP(=O)(O)O)C(=O)O
Measure Name: Kd

Example entries begin here.
Determine from records and report Kd for human 14-3-3 isoform η (recombinant, MBP tag removed) (natural protein, UniProt Q04917 1-246, looked up, 14-3-3 eta, human; Expressed from pMAL2CX plasmids; also called 14-3-3η; source: E. coli BL21DE3, purified (maltose-agarose, Factor Xa, anion exchange)) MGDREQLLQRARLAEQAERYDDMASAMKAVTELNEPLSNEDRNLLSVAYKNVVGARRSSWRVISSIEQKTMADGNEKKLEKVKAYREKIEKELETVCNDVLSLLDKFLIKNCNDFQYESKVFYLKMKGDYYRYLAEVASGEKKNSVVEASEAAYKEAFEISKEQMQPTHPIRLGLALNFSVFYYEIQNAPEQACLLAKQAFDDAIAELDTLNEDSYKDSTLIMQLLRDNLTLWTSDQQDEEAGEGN 85 nM

Fill in reported Kd for this entry: human 14-3-3 isoform σ (recombinant, MBP tag removed) (natural protein, UniProt P31947 1-248, looked up, 14-3-3 sigma, human; Expressed from pMAL2CX plasmids; also called 14-3-3σ; source: E. coli BL21DE3, purified (maltose-agarose, Factor Xa, anion exchange)) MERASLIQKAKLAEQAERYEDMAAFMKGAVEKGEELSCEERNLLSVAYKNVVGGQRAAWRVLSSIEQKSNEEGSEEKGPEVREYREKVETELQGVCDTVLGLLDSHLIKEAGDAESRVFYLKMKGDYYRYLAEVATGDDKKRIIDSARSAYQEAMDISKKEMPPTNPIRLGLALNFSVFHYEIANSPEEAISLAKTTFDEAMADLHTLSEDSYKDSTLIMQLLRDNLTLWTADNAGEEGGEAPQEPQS 802 nM

# return recorded Kd for entry human 14-3-3 isoform θ (recombinant, MBP tag removed) (natural protein, UniProt P27348 1-245, looked up, 14-3-3 theta, human; Expressed from pMAL2CX plasmids; also called 14-3-3θ; source: E. coli BL21DE3, purified (maltose-agarose, Factor Xa, anion exchange)) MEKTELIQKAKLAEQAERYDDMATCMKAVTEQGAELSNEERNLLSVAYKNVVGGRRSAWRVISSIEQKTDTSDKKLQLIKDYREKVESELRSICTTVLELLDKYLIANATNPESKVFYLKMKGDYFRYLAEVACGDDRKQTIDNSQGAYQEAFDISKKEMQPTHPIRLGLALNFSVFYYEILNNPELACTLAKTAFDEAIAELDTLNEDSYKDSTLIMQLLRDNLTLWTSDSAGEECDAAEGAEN 195 nM

More entries:
Let me know recorded Kd for human 14-3-3 isoform β (recombinant, MBP tag removed) (natural protein, UniProt P31946 1-246, looked up, 14-3-3 beta, human; Expressed from pMAL2CX plasmids; also called 14-3-3β; source: E. coli BL21DE3, purified (maltose-agarose, Factor Xa, anion exchange)) MTMDKSELVQKAKLAEQAERYDDMAAAMKAVTEQGHELSNEERNLLSVAYKNVVGARRSSWRVISSIEQKTERNEKKQQMGKEYREKIEAELQDICNDVLELLDKYLIPNATQPESKVFYLKMKGDYFRYLSEVASGDNKQTTVSNSQQAYQEAFEISKKEMQPTHPIRLGLALNFSVFYYEILNSPEKACSLAKTAFDEAIAELDTLNEESYKDSTLIMQLLRDNLTLWTSENQGDEGDAGEGEN , thanks. 183 nM

Could you please provide reported Kd for human 14-3-3 isoform ε (recombinant, MBP tag removed) (natural protein, UniProt P62258 1-255, looked up, 14-3-3 epsilon, human; Expressed from pMAL2CX plasmids; also called 14-3-3ε; source: E. coli BL21DE3, purified (maltose-agarose, Factor Xa, anion exchange)) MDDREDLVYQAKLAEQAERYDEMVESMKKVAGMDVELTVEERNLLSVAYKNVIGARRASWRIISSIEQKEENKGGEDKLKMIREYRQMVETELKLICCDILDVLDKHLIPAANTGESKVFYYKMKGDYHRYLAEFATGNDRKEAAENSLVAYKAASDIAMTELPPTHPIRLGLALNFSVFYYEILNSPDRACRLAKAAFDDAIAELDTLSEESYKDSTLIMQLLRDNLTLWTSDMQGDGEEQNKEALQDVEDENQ ? Thanks! > 1000 nM

Please give the documented Kd of human 14-3-3 isoform ζ (recombinant, MBP tag removed) (natural protein, UniProt P63104 1-245, looked up, 14-3-3 zeta, human; Expressed from pMAL2CX plasmids; also called 14-3-3ζ; source: E. coli BL21DE3, purified (maltose-agarose, Factor Xa, anion exchange)) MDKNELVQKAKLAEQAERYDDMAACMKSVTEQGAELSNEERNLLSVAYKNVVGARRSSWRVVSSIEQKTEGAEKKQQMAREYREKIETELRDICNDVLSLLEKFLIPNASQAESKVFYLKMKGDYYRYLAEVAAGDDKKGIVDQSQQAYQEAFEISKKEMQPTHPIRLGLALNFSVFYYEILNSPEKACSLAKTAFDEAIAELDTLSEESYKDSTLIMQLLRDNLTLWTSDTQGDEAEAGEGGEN 476 nM
